pIC50 values for the compounds below.
Biological target: hAR (Homo sapiens, UniProt P10275)
Construct: made in house; host or cells: baculovirus/Sf9 insect cells
Sequence (P10275 whole entry): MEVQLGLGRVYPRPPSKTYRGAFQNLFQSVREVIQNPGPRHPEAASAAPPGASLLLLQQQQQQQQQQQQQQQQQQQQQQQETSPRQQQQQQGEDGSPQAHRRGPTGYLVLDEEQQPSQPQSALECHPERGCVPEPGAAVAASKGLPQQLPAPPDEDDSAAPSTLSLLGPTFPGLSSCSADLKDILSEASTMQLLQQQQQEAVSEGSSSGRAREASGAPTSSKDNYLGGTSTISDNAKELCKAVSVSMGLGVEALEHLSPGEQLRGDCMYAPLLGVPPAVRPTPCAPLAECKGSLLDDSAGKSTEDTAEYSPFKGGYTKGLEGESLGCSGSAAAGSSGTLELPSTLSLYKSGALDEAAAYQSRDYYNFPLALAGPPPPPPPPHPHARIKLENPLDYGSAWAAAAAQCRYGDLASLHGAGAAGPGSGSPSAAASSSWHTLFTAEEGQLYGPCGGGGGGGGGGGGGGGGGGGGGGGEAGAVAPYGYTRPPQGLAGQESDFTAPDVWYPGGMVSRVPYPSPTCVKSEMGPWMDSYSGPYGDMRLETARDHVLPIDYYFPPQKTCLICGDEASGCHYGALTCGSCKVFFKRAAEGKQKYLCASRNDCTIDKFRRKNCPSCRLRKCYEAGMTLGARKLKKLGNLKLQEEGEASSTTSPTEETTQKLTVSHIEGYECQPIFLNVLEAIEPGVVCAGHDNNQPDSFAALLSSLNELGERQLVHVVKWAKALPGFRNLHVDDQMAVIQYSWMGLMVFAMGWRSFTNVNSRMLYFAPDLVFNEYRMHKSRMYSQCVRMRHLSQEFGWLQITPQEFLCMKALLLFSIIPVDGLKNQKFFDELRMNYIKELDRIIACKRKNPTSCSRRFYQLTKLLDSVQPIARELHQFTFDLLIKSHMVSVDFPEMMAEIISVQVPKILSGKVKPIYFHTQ
Assay: Competitive binding analysis on baculovirus/Sf9 generated hAR extracts with 3H-DHT tracer
Conditions: hAR extract, 1 nM 3H-DHT, one hour at 4° C.; mean of multiple tests; read-out: AR Binding IC50
Procedure: The description below describes how the assay was carried out. Competitive binding analysis was performed on baculovirus/Sf9 generated hAR extracts in the presence or absence of different concentrations of test agent and a fixed concentration of ^3H-dihydrotestosterone (^3H-DHT) as tracer. […] Compound binding affinity to the hAR is expressed as the concentration of compound at which one half of the maximum binding is inhibited.
Value format note: pIC50 is -log10 of concentration (mol/L); just state the number.

COMPOUND: N#Cc1ccc(OC2CCCCCC2)cc1C(F)(F)F
pIC50: 6.50
//
COMPOUND: CC1CCC(Oc2ccc(C#N)c(Cl)c2)CC1C (stereo not shown)
pIC50: 6.35
//
COMPOUND: CC1CCC(Oc2ccc(C#N)c(Cl)c2)C1 (stereo not shown)
pIC50: 6.84
//
COMPOUND: C=CCO[C@H]1CCCC[C@@H]1Oc1ccc(C#N)c(C(F)(F)F)c1
pIC50: 6.43
//
COMPOUND: N#Cc1ccc(OC2CCCC(O)C2)cc1Cl (stereo not shown)
pIC50: 6.39
//
COMPOUND: CC1CCCC(Oc2ccc(C#N)cc2Cl)C1C (stereo not shown) [Example 63]
pIC50: 6.43
//
COMPOUND: N#Cc1ccc(OC2CCCC2)cc1C(F)(F)F
pIC50: 6.81
//
COMPOUND: C=CCO[C@H]1CCC[C@@H]1Oc1ccc(C#N)c(Cl)c1 (relative stereo)
pIC50: 6.92
//
COMPOUND: CCC1CCCCC1Oc1ccc(C#N)c(C(F)(F)F)c1 (stereo not shown)
pIC50: 6.90

Now consider the entry below.
Q: I have this compound here, CC1CCCC(Oc2ccc(C#N)c(C(F)(F)F)c2)C1C (stereo not shown) , and I need its recorded pIC50.
Ans: 6.45

====

Target: androgen receptor (Homo sapiens, UniProt P10275, Q868H)
Construct: a human breast tumor cell line expressing androgen receptor; endogenous in cells; host or cells: MDA-MB453-MMTV clone 54-19 (only the MMTV-luciferase reporter was transfected)
Sequence (P10275 whole entry Q868H): as the sequence (P10275 whole entry) above, with Q868H counted along it
Assay: AR antagonist cell assay (MDA-MB453-MMTV clone 54-19, luciferase reporter)
Type: cell-based
Conditions: MDA-MB453-MMTV clone 54-19 cells, 100 pM DHT, 17 hr; mean of multiple tests; read-out: AR Cell IC50
// classify: if (IC50 < 100 nM) satisfied else not satisfied

Q: Hi there! Is IC50 for N#Cc1ccc(OC2CC3CCC2C3)cc1Cl (stereo not shown) below 100 nM, do you know?
Ans: satisfied

Q: Similarly, CC1CCCCC1Oc1ccc(C#N)c(C(F)(F)F)c1 (stereo not shown) ?
Ans: not satisfied

Q: Similarly, N#Cc1ccc(O[C@H]2CCCCC2c2ccccc2)cc1Cl (stereo in doubt) ?
Ans: not satisfied

Q: Similarly, N#Cc1ccc(O[C@@H]2CC3CC[C@@H]2C3)cc1Cl (stereo in doubt) ?
Ans: satisfied

Q: Similarly, N#Cc1ccc(OC2CCCC2)cc1Cl ?
Ans: satisfied

Q: Similarly, CC1CCCC(Oc2ccc(C#N)cc2Cl)C1C (single isomer, unassigned) ?
Ans: not satisfied
